test system: SK-MEL-28 melanoma; assay: NCI-60 one-dose screen, 48 h; details: 10 µM unless noted
About 83,000 compounds went through this panel and 20% of them were active in at least one assay; those are over-represented in the sample as a whole. Activity calls are given as the source filed them. Rule for the calls: active = growth percent below 10; inactive = the rest.
# output must be one of class 1 (active), class 0 (inactive)

Ask: Please indicate how the test categorized N#CC1(C#N)C(c2cccs2)NC(c2cccs2)C1(C#N)C#N (stereo not drawn) .
Reply: class 0

Ask: Any idea what this test logged for "Ic1ccccc1-c1ccccc1" ?
Reply: class 0

Ask: Recorded test call requested for "CCN1CCN(c2cc(C)nc(N(CCCNc3ccnc4cc(Cl)ccc34)Cc3cccs3)n2)CC1"
Reply: class 1

* * *

Recorded growth values for a group of molecules are listed next.
test system: SF-295 CNS; experiment: NCI-60 one-dose screen, 48 h (100 = growth as untreated, 0 = no growth, -100 = all killed); conditions: 10 µM unless noted
This is part of a sample that, as a whole, favours compounds with a hit. Of some 83,000 tested, about 20% had one in any assay.
# unit: % | format: bare number

The following molecules have reported results that may help.
[
  {
    "molecule": "O=C(Cn1cncn1)Nc1ccc(-c2nc3ccccc3s2)cc1",
    "reportedProperty": "growth",
    "observedMeasurement": 91.9
  },
  {
    "molecule": "COc1ccc2c(CCCC(c3ccccc3)c3ccccc3)c3[n+](cc2c1OC)CCc1cc2c(cc1-3)OCO2",
    "reportedProperty": "growth",
    "observedMeasurement": -32.2
  },
  {
    "molecule": "C=C1C(=O)O[C@H]2[C@H]1CC/C(C=Nc1c(N)cc(C(F)(F)F)cc1C(F)(F)F)=C\\CC[C@@]1(C)O[C@@H]21",
    "reportedProperty": "growth",
    "observedMeasurement": 49.7
  },
  {
    "molecule": "CC1(COc2ccc3c(c2)ncn3-c2ccc3cccc(N4CCC(N)CC4)c3n2)COC1",
    "reportedProperty": "growth",
    "observedMeasurement": 59.8
  },
  {
    "molecule": "COc1cc2c3c(c1)nc(C)n3CCC2",
    "reportedProperty": "growth",
    "observedMeasurement": 95.8
  },
  {
    "molecule": "Clc1nc(Cl)c2ncn(C/C=C\\Cn3cnc4c(Cl)nc(Cl)nc43)c2n1",
    "reportedProperty": "growth",
    "observedMeasurement": -32.9
  }
]

Ask: Endpoint output: growth of "Cc1[nH]c(/C=C2\C(=O)Nc3ccc(F)cc32)c(C)c1C(=O)NC[C@H](O)CN1CCOCC1" . Value?
Reply: 64

Ask: Would you mind telling me what growth value was observed for "Nc1nc(N)c2nc(-c3cccc(O)c3)c(-c3cccc(O)c3)nc2n1" ?
Reply: 89.8

Ask: Name the reported growth value associated with the molecule CC(=O)C1CC(C)CCC1C(C)C (configuration not stated)
Reply: 120

Ask: Dear colleague, I am looking for the recorded growth of the following molecule: "CC(C)c1cc(CNc2nc(Nc3cc(C4CC4)[nH]n3)cc(N3CCN(C)CC3)n2)on1"
Reply: 6.84

Ask: I am curious: what growth value has been reported for N#CC1(C#N)C(c2cccs2)NC(c2cccs2)C1(C#N)C#N (configuration not stated) ?
Reply: 95.6

Ask: Please report the recorded growth for COc1c(C(NC(=O)c2ccccc2)c2sccc2C)cc(Cl)c2cccnc12 (configuration not stated) .
Reply: 103

Ask: Entry "CCN1CCN(c2cc(C)nc(N(CCCNc3ccnc4cc(Cl)ccc34)Cc3cccs3)n2)CC1" has what growth?
Reply: -69.4

Ask: Field request: growth | item: CC(=Nc1ccccc1)C1=C(O)C(Cc2ccccc2)NC1=O (configuration not stated)
Reply: -19.1

Ask: For the molecule shown here, "C[C@@H](C[C@H](CCO)c1cc(C(F)(F)F)cc(C(F)(F)F)c1)c1ccc2ccccc2c1" , give the reported growth.
Reply: 77.8

* * *

system: UACC-257 melanoma; experiment: NCI-60 one-dose screen, 48 h; details: 10 µM unless noted
The panel holds about 83,000 compounds, 20% with a hit somewhere; the sample as a whole holds those more often. Activity calls are given as the source filed them. Rule for the calls: active = growth percent below 10; inactive = the rest.
Thanks in advance; please answer with one of these: class 1 (active), class 0 (inactive)

Example results:
[
  {
    "compound": "O=C(Cn1ccc2ccccc21)Nc1ccc(-c2nc3ccccc3s2)cc1",
    "targetOrTestSystem": "UACC-257 melanoma",
    "classLabel": "class 0"
  },
  {
    "compound": "CC(C)(O)CC(=O)NCCn1ccc2ncnc(Nc3ccc(Oc4cccc(C(F)(F)F)c4)c(Cl)c3)c21",
    "targetOrTestSystem": "UACC-257 melanoma",
    "classLabel": "class 1"
  },
  {
    "compound": "CC(=O)Nc1cccc(-n2c(=O)n(C3CC3)c(=O)c3c(Nc4ccc(I)cc4F)n(C)c(=O)c(C)c32)c1",
    "targetOrTestSystem": "UACC-257 melanoma",
    "classLabel": "class 1"
  },
  {
    "compound": "Cc1nn(-c2ccccc2)c2c1N=c1s/c(=C\\c3cn(-c4ccccc4)nc3-c3ccc(Cl)cc3)c(=O)n1C(C)N2 (stereo not drawn)",
    "targetOrTestSystem": "UACC-257 melanoma",
    "classLabel": "class 0"
  },
  {
    "compound": "CCOC(=O)c1sc(NC(=O)COc2ccc(/C=C3\\Cc4ccc(Cl)cc4C3=O)cc2)nc1C",
    "targetOrTestSystem": "UACC-257 melanoma",
    "classLabel": "class 0"
  },
  {
    "compound": "COc1cc2cc(NCc3ccc(F)cc3)nc(C)c2cc1OC",
    "targetOrTestSystem": "UACC-257 melanoma",
    "classLabel": "class 0"
  },
  {
    "compound": "Cc1ccc(NC(=O)c2ccc(CN3CCN(C)CC3)cc2)cc1Nc1nc(-c2cccnc2)cs1",
    "targetOrTestSystem": "UACC-257 melanoma",
    "classLabel": "class 0"
  },
  {
    "compound": "CNC(=O)CN1CCC(Oc2cc3c(Nc4cccc(Cl)c4F)ncnc3cc2OC)CC1",
    "targetOrTestSystem": "UACC-257 melanoma",
    "classLabel": "class 0"
  },
  {
    "compound": "Cc1cc(Nc2cc(N3CCN(C)CC3)nc(Sc3ccc(NC(=O)C4CC4)cc3)n2)n[nH]1",
    "targetOrTestSystem": "UACC-257 melanoma",
    "classLabel": "class 0"
  },
  {
    "compound": "COc1ccc(COc2cc3oc(=O)c4cc(C(C)O)ccc4c3cc2OC)cc1 (stereo not drawn)",
    "targetOrTestSystem": "UACC-257 melanoma",
    "classLabel": "class 0"
  }
]

Ask: I would be grateful if you could indicate the recorded call for "CCCS(=O)(=O)Nc1ccc(F)c(C(=O)c2c[nH]c3ncc(-c4ccc(Cl)cc4)cc23)c1F" .
Reply: class 1

Ask: // return assay outcome for "COc1cc2ncnc3c2cc1OCCCCCN(C)Cc1ccc(Br)cc1N3"
Reply: class 0

Ask: State the result this test recorded for "N[C@@H]1CCCN(c2c(/C=C3\SC(=O)NC3=O)cccc2-c2ccccc2)C1" .
Reply: class 0

* * *

Tested on: HS 578T breast
Experiment: NCI-60 one-dose screen, 48 h (100 = growth as untreated, 0 = no growth, -100 = all killed)
Details: 10 µM
Method: Growth inhibition of the HS 578T human tumor cell line is measured as a screen for anti-cancer activity. Cells are grown in 96 well plates and exposed to the test compound for 48 hours. Compounds are tested at a single concentration, which is 10^-5 M for most compounds. The reported endpoint is percent growth (GI% or GIPRCNT), where numbers from 0 - 100% represent growth inhibition, and numbers from -100% - 0 represent cell death. For example, a value of 40 represents 60% growth inhibition. […]
Compounds without any hit were thinned out: in the full panel of roughly 83,000, 20% have a hit.
growth under 30% gets 1, anything at or over 30% gets -1.

[
  {
    "compound": "COc1ccc(Cc2cc(-c3ccccc3C)n[nH]c2=O)cc1",
    "targetOrTestSystem": "HS 578T breast",
    "classLabel": -1
  },
  {
    "compound": "CCCCn1c(C)nc2cc(Nc3nc(N4CCCCC4)nc4nc[nH]c34)ccc21",
    "targetOrTestSystem": "HS 578T breast",
    "classLabel": -1
  },
  {
    "compound": "N#CC(C#N)=NO",
    "targetOrTestSystem": "HS 578T breast",
    "classLabel": -1
  },
  {
    "compound": "CSC1=C(N)C(=O)c2[nH]cc(CO)c2C1=N",
    "targetOrTestSystem": "HS 578T breast",
    "classLabel": 1
  },
  {
    "compound": "CN1CCN(Cc2ccc(NC(=O)c3[nH]ncc3Nc3ncnc4sc5c(c34)CCCC5)cc2)CC1",
    "targetOrTestSystem": "HS 578T breast",
    "classLabel": 1
  }
]

Ask: Report whether reported growth is lower than 30% (strictly) for COc1cc2c(cc1OCCCCN1CCN(CC(=O)Nc3ccc(Cl)cc3C(=O)c3ccccc3Cl)CC1)N=CC1CCCN1C2=O (stereo not drawn)
Reply: 1

Ask: Strictly below 30%: is that where growth of CCN(CC)CCCC(C)Nc1cc(-c2ccc(C(F)(F)F)cc2)c(C#N)c2nc3ccccc3n12 (stereo not drawn) sits?
Reply: 1

Ask: Determine if Nc1c2c(c(O)c3c1=C(CO)C=N3)=NCCS2=O (stereo not drawn) shows growth strictly lower than 30%.
Reply: 1

Ask: Criterion: growth strictly below 30%. Is it met by "CCN1/C(=C/C=C/c2n(-c3ccccc3)c3ccc(-c4nc5ccccc5s4)cc3[n+]2CC)N(c2ccccc2)c2ccc(-c3nc4ccccc4s3)cc21" ?
Reply: 1

Ask: Strictly below 30%: is that where growth of "CCOC(=O)C1=C(C)N=C2Sc3cc(OC(F)(F)F)ccc3N2[C@H]1c1ccccn1" sits?
Reply: -1

Ask: Take the compound "CCOC(=O)Sc1ncnc2nc[nH]c12" and say whether its growth is less than 30%.
Reply: -1
